- Tested on: HIV wild type (WTRVA)
- protocol.description: HeLa cell assay, wild type virus (WTRVA)
- Assay type: cell-based, HIV-1
- Parameters: scale not given here
- conditions: Human immunodeficiency virus 1, HeLa, HeLa-CD4-LTR-β-gal cells, wild type virus; read-out: WTRVA activity level
pIC50: −log10 of the molar value. Structures can show the parent of a compound that is named as a salt.
metric.name: pIC50

// known answers, use as guide
>>> result_value("N#Cc1cc(Cl)cc(Oc2c(Cl)ccc(CNC(=O)c3ccno3)c2F)c1")
"6.00 to 8.00"
>>> result_value("N#Cc1cc(Cl)cc(Oc2c(Cl)ccc(CNC(=O)c3cc4cc([N+](=O)[O-])ccc4[nH]3)c2F)c1")
"> 8.00"
>>> result_value("N#Cc1cc(Cl)cc(Oc2c(Cl)ccc(CNC(=O)c3csnn3)c2F)c1")
"> 8.00"
>>> result_value("CSc1nc(C(=O)NCc2ccc(Cl)c(Oc3cc(Cl)cc(C#N)c3)c2F)cn1C(c1ccccc1)(c1ccccc1)c1ccccc1 [Example 65, trifluoroacetate]")
"6.00 to 8.00"

Prompt line: I would be grateful if you could share the reported pIC50 for N#Cc1cc(Cl)cc(Oc2c(Cl)ccc(CNC(=O)c3[nH]cnc3Br)c2F)c1 [Example 133, trifluoroacetate] .
Response line: > 8.00

Prompt line: I would be grateful if you could share the reported pIC50 for N#Cc1cc(Cl)cc(Oc2c(Cl)ccc(CNC(=O)c3ncc[nH]3)c2F)c1 [Example 59, trifluoroacetate] .
Response line: > 8.00

Prompt line: I would be grateful if you could share the reported pIC50 for CC(=O)Nc1ccc2[nH]c(C(=O)NCc3ccc(Cl)c(Oc4cc(Cl)cc(C#N)c4)c3F)nc2c1 .
Response line: > 8.00

====

Entries annotated with measured pIC50
- Tested on: HIV wild type (WTRVA)
- protocol.description: HeLa cell assay, wild type virus (WTRVA)
- Type: cell-based, HIV-1
- Design: scale not given here
- conditions: Human immunodeficiency virus 1, HeLa, HeLa-CD4-LTR-β-gal cells, wild type virus; read-out: WTRVA activity level
pIC50: −log10 of the molar value. Where a name gives a salt, the structure may show the parent alone.

>>> result_value("CS(=O)(=O)c1ccc(C(=O)NCc2ccc(Cl)c(Oc3cc(Cl)cc(C#N)c3)c2F)c(Cl)c1")
"6.00 to 8.00"
>>> result_value("CC(=O)Nc1ccc2[nH]c(C(=O)NCc3ccc(Cl)c(Oc4cc(Cl)cc(C#N)c4)c3F)cc2c1")
"> 8.00"
>>> result_value("Cc1[nH]c(C(=O)NCc2ccc(Cl)c(Oc3cc(Cl)cc(C#N)c3)c2F)c(C)c1C#N [Example 71, trifluoroacetate]")
"> 8.00"
>>> result_value("N#Cc1cc(Cl)cc(Oc2c(Cl)ccc(CNC(=O)c3nc4ccccc4[nH]3)c2F)c1")
"> 8.00"
>>> result_value("COc1ccc2[nH]c(C(=O)NCc3ccc(Cl)c(Oc4cc(Cl)cc(C#N)c4)c3F)cc2c1Br [Example 73, trifluoroacetate]")
"6.00 to 8.00"

Prompt line: I would be grateful if you could share the reported pIC50 for CC(=O)NCc1ccc2cc(C(=O)NCc3ccc(Cl)c(Oc4cc(Cl)cc(C#N)c4)c3F)[nH]c2c1 [Example 74, trifluoroacetate] .
Response line: > 8.00

Prompt line: I would be grateful if you could share the reported pIC50 for COc1ccc2cc(C(=O)NCc3ccc(Cl)c(Oc4cc(Cl)cc(C#N)c4)c3F)[nH]c2c1 .
Response line: 6.00 to 8.00

Prompt line: I would be grateful if you could share the reported pIC50 for COc1cccc2[nH]c(C(=O)NCc3ccc(Cl)c(Oc4cc(Cl)cc(C#N)c4)c3F)cc12 .
Response line: > 8.00

Prompt line: I would be grateful if you could share the reported pIC50 for N#Cc1cc(Cl)cc(Oc2c(Cl)ccc(CNC(=O)c3ccncc3)c2F)c1 [Example 89, trifluoroacetate] .
Response line: 6.00 to 8.00

Prompt line: I would be grateful if you could share the reported pIC50 for N#Cc1cc(Cl)cc(Oc2cc(CNC(=O)c3cc4cc([N+](=O)[O-])ccc4[nH]3)ccc2Cl)c1 .
Response line: < 6.00

Prompt line: I would be grateful if you could share the reported pIC50 for Cc1ccc2[nH]c(C(=O)NCc3ccc(Cl)c(Oc4cc(Cl)cc(C#N)c4)c3F)c(C)c2c1 [Example 52, trifluoroacetate] .
Response line: 6.00 to 8.00

Prompt line: I would be grateful if you could share the reported pIC50 for N#Cc1cc(Cl)cc(Oc2c(Cl)ccc(CNC(=O)c3cc4ccc(OCc5ccccc5)cc4[nH]3)c2F)c1 .
Response line: 6.00 to 8.00

Prompt line: I would be grateful if you could share the reported pIC50 for CC(C)(C)OC(=O)N1CCC[C@H]1C(=O)Nc1ccc2[nH]c(C(=O)NCc3ccc(Cl)c(Oc4cc(Cl)cc(C#N)c4)c3F)cc2c1 .
Response line: > 8.00

Prompt line: I would be grateful if you could share the reported pIC50 for CCCCc1nc(Cl)c(C(=O)NCc2ccc(Cl)c(Oc3cc(Cl)cc(C#N)c3)c2F)[nH]1 [Example 140, trifluoroacetate] .
Response line: > 8.00
